Data credit: patent US12162858B2

- assay-system: CSF1R (Homo sapiens)
- experiment: KINOMEscan competition binding assay for CSF1R
- Parameters: DNA tag for qPCR (not a peptide); host or cells: E. coli/T7 phage or HEK-293
- condition-context: @ 0.1 uM; read-out: CSF1R kinase binding activity, Percent (%) inhibition
The label depends only on inhibition at 0.1 µM: MET if it is at least 90%, NOT MET if it is smaller.

Some solved cases for reference:
[
  {
    "compound": "CCCn1cc(OCC(F)(F)F)c(C(=O)Nc2ccc(Oc3ccnc4cc(OC)c(OC)cc34)cc2)n1 [Compound 38]",
    "category": "NOT MET"
  },
  {
    "compound": "COCCn1cc(OCC(F)(F)F)c(C(=O)Nc2ccc(Oc3ccnc4cc(OC)c(OC)cc34)c(F)c2)n1 [Compound 54]",
    "category": "NOT MET"
  },
  {
    "compound": "COc1cc2nccc(Oc3ccc(NC(=O)c4nn(CC(C)O)cc4OCC4CCC4)nc3)c2cc1OC (stereo not shown) [Compound 163]",
    "category": "MET"
  },
  {
    "compound": "COc1cc2nccc(Oc3ccc(NC(=O)c4nn(C5CCN(C)C5)cc4OCC(F)(F)F)cc3)c2cc1OC (stereo not shown) [Compound 100]",
    "category": "NOT MET"
  },
  {
    "compound": "COc1cc2nccc(Oc3ccc(NC(=O)c4nn(CCN)cc4OCC(F)(F)F)cc3C)c2cc1OC [Compound 82]",
    "category": "NOT MET"
  }
]

Inquiry: Is reported inhibition at 0.1 µM greater than or equal to 90% here: COc1cc2nccc(Oc3ccc(NC(=O)c4nn(CCO)cc4OCC(F)(F)F)c(F)c3)c2cc1OC [Compound 46]
Reply text: MET

Inquiry: Is reported inhibition at 0.1 µM greater than or equal to 90% here: COc1cc2nccc(Oc3ccc(NC(=O)c4nn(C)cc4OCC(F)(F)F)c(F)c3)c2cc1OC [Compound 45]
Reply text: MET

* * *

Documented pIC50 across a set of molecules
- assay-system: Axl (Homo sapiens, UniProt P30530)
- Sequence (P30530 26-894): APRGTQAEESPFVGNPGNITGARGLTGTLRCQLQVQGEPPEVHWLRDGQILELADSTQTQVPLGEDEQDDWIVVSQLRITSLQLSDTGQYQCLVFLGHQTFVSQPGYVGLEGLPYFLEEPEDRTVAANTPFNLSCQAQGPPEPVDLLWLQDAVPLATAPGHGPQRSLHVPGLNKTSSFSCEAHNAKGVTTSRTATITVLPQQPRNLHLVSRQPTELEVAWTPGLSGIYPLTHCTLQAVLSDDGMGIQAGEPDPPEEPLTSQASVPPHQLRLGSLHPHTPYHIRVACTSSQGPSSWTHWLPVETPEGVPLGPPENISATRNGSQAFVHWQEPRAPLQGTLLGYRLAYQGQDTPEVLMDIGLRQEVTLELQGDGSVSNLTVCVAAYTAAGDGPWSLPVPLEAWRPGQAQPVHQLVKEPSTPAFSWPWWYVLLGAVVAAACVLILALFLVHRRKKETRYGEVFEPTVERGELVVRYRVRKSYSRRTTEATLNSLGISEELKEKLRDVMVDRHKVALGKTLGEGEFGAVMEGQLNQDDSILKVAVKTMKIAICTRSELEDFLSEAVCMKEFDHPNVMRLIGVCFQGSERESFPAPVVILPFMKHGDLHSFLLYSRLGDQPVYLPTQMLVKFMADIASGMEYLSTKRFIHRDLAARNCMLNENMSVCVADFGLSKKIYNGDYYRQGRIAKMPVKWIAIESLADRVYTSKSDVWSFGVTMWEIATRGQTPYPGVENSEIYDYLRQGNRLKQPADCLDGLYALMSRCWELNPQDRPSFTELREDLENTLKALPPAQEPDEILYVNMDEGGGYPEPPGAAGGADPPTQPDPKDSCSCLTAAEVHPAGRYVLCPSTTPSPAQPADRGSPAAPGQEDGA
- experiment: Cellular Axl inhibition ELISA (p-Axl, Gas6-induced) using H1299 cells
- Assay type: cell-based
- Set-up: especially H1299 cell endogenously expresses Axl; endogenous in cells; host or cells: H1299
- condition-context: read-out: Cellular Axl activity by H1299 Elisa (IC50)
- Description: Axl is expressed in several of malignant cancer cells; especially H1299 cell endogenously expresses Axl; and an increased phosphorylation of Axl (p-Axl) can be observed, when induced by the Axl ligand, Ga6. The H1299 cells should be 40-80% confluent in the cell culture flask. Then cells are washed with DPBS and trypsinized. […] Read absorbance at 450 nm within 30 min after adding STOP Solution. […]
pIC50: −log10 of the molar value.

Worked set:
[
  {
    "molecule": "CCCn1cc(OCCC(F)(F)F)c(C(=O)Nc2ccc(Oc3ccnc4cc(OC)c(OC)cc34)cn2)n1 [Compound 31]",
    "assay-system": "Axl (Homo sapiens, UniProt P30530)",
    "result": "> 6.30"
  },
  {
    "molecule": "COc1cc2nccc(Oc3ccc(NC(=O)c4nn(CCO)cc4OCC(F)(F)F)c(F)c3)c2cc1OC [Compound 46]",
    "assay-system": "Axl (Homo sapiens, UniProt P30530)",
    "result": "> 6.30"
  },
  {
    "molecule": "COc1cc2nccc(Oc3ccc(NC(=O)c4nn(C5CCC5)cc4OCC(F)(F)F)nc3)c2cc1OC [Compound 24]",
    "assay-system": "Axl (Homo sapiens, UniProt P30530)",
    "result": "> 6.30"
  }
]

Inquiry: GET pIC50 where system = Axl (Homo sapiens, UniProt P30530) and item = COc1cc2nccc(Oc3ccc(NC(=O)c4nn(CC(C)O)cc4OCC4CN(C)C4)nc3)c2cc1OC (stereo not shown) [Compound 174]
Reply text: ≤ 6.00

Inquiry: GET pIC50 where system = Axl (Homo sapiens, UniProt P30530) and item = COCCn1cc(OCC(F)(F)F)c(C(=O)Nc2ccc(Oc3ccnc4cc(OC)c(OC)cc34)cc2)n1 [Compound 61]
Reply text: > 6.30

Inquiry: GET pIC50 where system = Axl (Homo sapiens, UniProt P30530) and item = COCCn1cc(OCC(F)(F)F)c(C(=O)Nc2ccc(Oc3ccnc4cc(OC)c(OC)cc34)c(F)c2)n1 [Compound 54]
Reply text: > 6.30

Inquiry: GET pIC50 where system = Axl (Homo sapiens, UniProt P30530) and item = CNCCn1cc(OCC(F)(F)F)c(C(=O)Nc2ccc(Oc3ccnc4cc(OC)c(OC)cc34)cc2)n1 [Compound 119]
Reply text: ≤ 6.00

* * *

- assay-system: CSF1R (Homo sapiens, UniProt P07333)
- Sequence (P07333 20-972): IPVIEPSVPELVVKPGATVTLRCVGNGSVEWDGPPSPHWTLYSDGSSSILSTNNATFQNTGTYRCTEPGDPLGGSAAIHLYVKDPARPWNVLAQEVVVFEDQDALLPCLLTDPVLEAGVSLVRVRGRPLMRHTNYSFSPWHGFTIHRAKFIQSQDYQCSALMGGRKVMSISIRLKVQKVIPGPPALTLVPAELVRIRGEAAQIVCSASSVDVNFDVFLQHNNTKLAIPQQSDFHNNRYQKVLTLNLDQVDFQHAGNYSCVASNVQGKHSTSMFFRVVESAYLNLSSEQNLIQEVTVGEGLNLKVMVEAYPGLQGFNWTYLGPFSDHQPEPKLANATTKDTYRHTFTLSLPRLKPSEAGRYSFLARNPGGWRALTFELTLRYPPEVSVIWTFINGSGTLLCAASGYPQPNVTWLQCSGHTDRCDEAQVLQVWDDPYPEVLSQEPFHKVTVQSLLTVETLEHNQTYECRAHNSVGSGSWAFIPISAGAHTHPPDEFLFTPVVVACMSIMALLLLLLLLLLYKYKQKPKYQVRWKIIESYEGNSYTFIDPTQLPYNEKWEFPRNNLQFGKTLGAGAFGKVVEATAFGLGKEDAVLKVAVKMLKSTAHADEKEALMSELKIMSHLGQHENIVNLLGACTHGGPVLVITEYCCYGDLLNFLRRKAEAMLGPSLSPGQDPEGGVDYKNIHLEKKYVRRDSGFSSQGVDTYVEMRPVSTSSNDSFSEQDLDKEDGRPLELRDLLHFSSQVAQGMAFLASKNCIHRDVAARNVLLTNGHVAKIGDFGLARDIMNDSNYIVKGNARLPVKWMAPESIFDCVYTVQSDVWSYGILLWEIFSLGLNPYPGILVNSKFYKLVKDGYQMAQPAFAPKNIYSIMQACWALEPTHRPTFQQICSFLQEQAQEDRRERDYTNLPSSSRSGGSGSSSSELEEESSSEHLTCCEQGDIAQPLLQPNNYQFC
- experiment: Cellular CSF1R inhibition ELISA (p-CSF1R, M-CSF-induced) using THP-1 cells
Documented IC50 across a set of compounds

[
  {
    "compound": "COc1cc2nccc(Oc3ccc(NC(=O)c4nn(C5CCNC5)cc4OCC(F)(F)F)c(F)c3)c2cc1OC (stereo not shown)",
    "assay-system": "CSF1R (Homo sapiens, UniProt P07333)",
    "IC50": "≥ 1 µM"
  }
]

Inquiry: # return recorded IC50 for input COc1cc2nccc(Oc3ccc(NC(=O)c4nn(CC(C)O)cc4OCC(F)(F)F)cc3)c2cc1OC (stereo not shown)
Reply text: 0.5 to 1 µM

Inquiry: # return recorded IC50 for input COc1cc2nccc(Oc3ccc(NC(=O)c4nn(C5CCCC5)cc4OCC(F)(F)F)cn3)c2cc1OC
Reply text: ≥ 1 µM

Inquiry: # return recorded IC50 for input COc1cc2nccc(Oc3ccc(NC(=O)c4nn(CC(C)O)cc4OCC(F)(F)F)cc3F)c2cc1OC (stereo not shown)
Reply text: ≥ 1 µM

Inquiry: # return recorded IC50 for input COc1cc2nccc(Oc3ccc(NC(=O)c4nn(CC(C)O)cc4OC(C)C)nc3)c2cc1OC (stereo not shown)
Reply text: < 0.5 µM

Inquiry: # return recorded IC50 for input COCCn1cc(OCC(F)(F)F)c(C(=O)Nc2ccc(Oc3ccnc4cc(OC)c(OC)cc34)c(C)c2)n1
Reply text: 0.5 to 1 µM

Inquiry: # return recorded IC50 for input CNCCn1cc(OCC(F)(F)F)c(C(=O)Nc2ccc(Oc3ccnc4cc(OC)c(OC)cc34)c(F)c2)n1
Reply text: ≥ 1 µM

* * *

- assay-system: CSF1R (Homo sapiens)
- experiment: KINOMEscan competition binding assay for CSF1R
- Design: DNA tag for qPCR (not a peptide); host or cells: E. coli/T7 phage or HEK-293
- condition-context: @ 0.1 uM; read-out: CSF1R kinase binding activity, Percent (%) inhibition
- Procedure: KINOMEscan™ is based on a competition binding assay that quantitatively measures the ability of a compound to compete with an immobilized, active-site directed ligand. […] The ability of the test compound to compete with the immobilized ligand is measured via quantitative PCR of the DNA tag. E. coli were grown to log-phase and infected with T7 phage and incubated with shaking at 32° C. until lysis. […] Kds were determined using an 11-point 3-fold compound dilution series with three DMSO control points. […]
assay-metric: inhibition at 0.1 µM
Put down the number, then write its unit next to it.

[
  {
    "molecule-smiles": "COc1cc2nccc(Oc3ccc(NC(=O)c4nn(C5CC5)cc4OCC(F)(F)F)nc3)c2cc1OC",
    "inhibition at 0.1 µM": "97%"
  },
  {
    "molecule-smiles": "CCCn1cc(OCCF)c(C(=O)Nc2ccc(Oc3ccnc4cc(OC)c(OC)cc34)cn2)n1",
    "inhibition at 0.1 µM": "98%"
  },
  {
    "molecule-smiles": "COc1cc2nccc(Oc3ccc(NC(=O)c4nn(CC(C)=O)cc4OCC(F)(F)F)nc3)c2cc1OC",
    "inhibition at 0.1 µM": "97%"
  },
  {
    "molecule-smiles": "CCCn1cc(OCCC(F)(F)F)c(C(=O)Nc2ccc(Oc3ccnc4cc(OC)c(OC)cc34)cn2)n1",
    "inhibition at 0.1 µM": "95%"
  },
  {
    "molecule-smiles": "COc1cc2nccc(Oc3ccc(NC(=O)c4nn(C5CC5)cc4OC(C)C)nc3)c2cc1OC",
    "inhibition at 0.1 µM": "96%"
  }
]

Now for a further molecule.
Inquiry: GET inhibition at 0.1 µM where system = CSF1R (Homo sapiens) and item = COc1cc2nccc(Oc3ccc(NC(=O)c4nn(CCCN)cc4OCC(F)(F)F)nc3)c2cc1OC
Reply text: 98%

* * *

- assay-system: CSF1R (Homo sapiens, UniProt P07333)
- experiment: KINOMEscan competition binding assay for CSF1R
- Parameters: DNA tag for qPCR (not a peptide); host or cells: E. coli/T7 phage or HEK-293
- condition-context: @ 0.1 uM; read-out: CSF1R kinase binding activity, Percent (%) inhibition
assay-metric: inhibition at 0.1 µM (%)
Give just the number in %; leave the unit off.

Inquiry: # return recorded inhibition at 0.1 µM for input COc1cc2nccc(Oc3ccc(NC(=O)c4nn(C5CCNC5)cc4OCC(F)(F)F)cc3)c2cc1OC (stereo not shown) [Compound 86]
Reply text: 11

Inquiry: # return recorded inhibition at 0.1 µM for input COc1cc2nccc(Oc3ccc(NC(=O)c4n[nH]cc4OCC(F)(F)F)nc3)c2cc1OC [Compound 16]
Reply text: 99

Inquiry: # return recorded inhibition at 0.1 µM for input CCCn1cc(OCCC(O)CO)c(C(=O)Nc2ccc(Oc3ccnc4cc(OC)c(OC)cc34)cn2)n1 (stereo not shown) [Compound 15]
Reply text: 87

Inquiry: # return recorded inhibition at 0.1 µM for input COc1cc2nccc(Oc3ccc(NC(=O)c4nn(CC5COC5)cc4OCC(F)(F)F)nn3)c2cc1OC [Compound 123]
Reply text: 72

Inquiry: # return recorded inhibition at 0.1 µM for input COc1cc2nccc(Oc3ccc(NC(=O)c4nn(CC5CCC5)cc4OCC(F)(F)F)nc3)c2cc1OC [Compound 42]
Reply text: 95

Inquiry: # return recorded inhibition at 0.1 µM for input COc1cc2nccc(Oc3ccc(NC(=O)c4nn(C5CCNC5)cc4OCC(F)(F)F)c(F)c3)c2cc1OC (stereo not shown) [Compound 74]
Reply text: 39

Inquiry: # return recorded inhibition at 0.1 µM for input CCCn1cc(OCC(F)(F)F)c(C(=O)Nc2ccc(Oc3ccnc4cc(OC)c(OC)cc34)c(C)c2)n1 [Compound 26]
Reply text: 94

Inquiry: # return recorded inhibition at 0.1 µM for input COc1cc2nccc(Oc3ccc(NC(=O)c4nn(C5CC5)cc4OCC(F)F)nc3)c2cc1OC [Compound 109]
Reply text: 98

Inquiry: # return recorded inhibition at 0.1 µM for input COc1cc2nccc(Oc3ccc(NC(=O)c4nn(C5CC5)cc4NCCC(F)(F)F)nn3)c2cc1OC [Compound 146]
Reply text: 43

Inquiry: # return recorded inhibition at 0.1 µM for input COc1cc2nccc(Oc3ccc(NC(=O)c4nn(CC(C)O)cc4OCC(F)(F)F)cc3C)c2cc1OC (stereo not shown) [Compound 83]
Reply text: 97

Inquiry: # return recorded inhibition at 0.1 µM for input COc1cc2nccc(Oc3ccc(NC(=O)c4nn(C5CCOC5)cc4OCC(F)(F)F)nn3)c2cc1OC (stereo not shown) [Compound 128]
Reply text: 94

Inquiry: # return recorded inhibition at 0.1 µM for input COc1cc2nccc(Oc3ccc(NC(=O)c4nn(CCOC5CC5)cc4OCC(F)(F)F)nn3)c2cc1OC [Compound 120]
Reply text: 95

Inquiry: # return recorded inhibition at 0.1 µM for input COc1cc2nccc(Oc3ccc(NC(=O)c4nn(CC5CCNC5)cc4OCC(F)(F)F)nc3)c2cc1OC (stereo not shown) [Compound 72]
Reply text: 96

Inquiry: # return recorded inhibition at 0.1 µM for input CCCn1cc(NCCC(F)(F)F)c(C(=O)Nc2ccc(Oc3ccnc4cc(OC)c(OC)cc34)cn2)n1 [Compound 158]
Reply text: 91

Inquiry: # return recorded inhibition at 0.1 µM for input CCCn1cc(OCC2COC2)c(C(=O)Nc2ccc(Oc3ccnc4cc(OC)c(OC)cc34)cn2)n1 [Compound 106]
Reply text: 95

Inquiry: # return recorded inhibition at 0.1 µM for input COc1cc2nccc(Oc3ccc(NC(=O)c4nn(C5CCCC5)cc4OCC(F)(F)F)cc3F)c2cc1OC [Compound 52]
Reply text: 71
